Tested on: MSSA ATCC 29213 and MRSA ATCC 43300
ASSAY_NOTES: MIC and MBC on methicillin-sensitive and methicillin-resistant S. aureus
Assay type: cell-based, Staphylococcus aureus
REPORTED_CONDITIONS: MRSA and MSSA; 1 vs VI, 2 vs VII, 3 vs V, 5 vs 4, 8 vs 7
For each of the molecules below, state its fold more potent than inferior (methylenoxy) homolog.
Field format: number, assumed fold, no unit text.

# fold more potent than inferior (methylenoxy) homolog measured on MSSA ATCC 29213 and MRSA ATCC 43300 for item Cc1nc(-c2ccc3c(c2)OC(CCOc2ccc(F)c(C(N)=O)c2F)CO3)no1 (centres unmarked) [Compound 1] = 5

# fold more potent than inferior (methylenoxy) homolog measured on MSSA ATCC 29213 and MRSA ATCC 43300 for item CCc1nc(-c2ccc3c(c2)OC(CCOc2ccc(F)c(C(N)=O)c2F)CO3)no1 (centres unmarked) [Compound 2] = 10

# fold more potent than inferior (methylenoxy) homolog measured on MSSA ATCC 29213 and MRSA ATCC 43300 for item NC(=O)c1c(F)ccc(OCCC2COc3cc4ccccc4cc3O2)c1F (centres unmarked) [Compound 5] = 12

# fold more potent than inferior (methylenoxy) homolog measured on MSSA ATCC 29213 and MRSA ATCC 43300 for item NC(=O)c1c(F)ccc(OCCC2COc3cc4c(cc3O2)CCCC4)c1F (centres unmarked) [Compound 8] = 50

----------
For each of the molecules below, state its TD90.
System: MRC-5 cells
ASSAY_NOTES: MTT cytotoxicity assay on MRC-5 cells
Format: cell-based, human
REPORTED_CONDITIONS: concentration reducing viability of MRC-5 cells by 90%, 24 h incubation

Entry NC(=O)c1c(F)ccc(OCCCOc2ccc3ccccc3c2)c1F [Compound 6] , TD90 reported as >2238 µM

Entry CCc1nc(-c2ccc3c(c2)OC(COc2ccc(F)c(C(N)=O)c2F)CO3)no1 (centres unmarked) [VII, reference compound] , TD90 reported as >1916 µM

Entry Cc1nc(-c2ccc3c(c2)OC(COc2ccc(F)c(C(N)=O)c2F)CO3)no1 (centres unmarked) [VI, reference compound] , TD90 reported as >1983 µM

Entry Cc1nc(-c2ccc3c(c2)OC(CCOc2ccc(F)c(C(N)=O)c2F)CO3)no1 (centres unmarked) [Compound 1] , TD90 reported as >1910 µM

Entry NC(=O)c1c(F)ccc(OCC2COc3cc4ccccc4cc3O2)c1F (centres unmarked) [Compound 4] , TD90 reported as >2276 µM
